These measurements were taken from patent US20230072421A1.

test.description: Biodistribution study in LNCaP tumor-bearing mice (Th227 counted in organs)
Assay type: in vivo, SCID mice
assay.context: 4 hr; 1500 kBq/kg

{"columns": ["compound", "Th-227 in brain, % ID Th-227/g organ"],
 "data": [
  ["O=C([O-])CN1CCN(CC(=O)[O-])CCN(CC(=O)NCC2CCC(C(=O)NC(Cc3ccc4ccccc4c3)C(=O)NCCCCC(NC(=O)NC(CCC(=O)O)C(=O)O)C(=O)O)CC2)CCN(CC(=O)[O-])CC1.[227Th+4] [Example 1-B-D-227Th]", 0.01],
  ["O=C([O-])CN1CCN(CC(=O)[O-])CCN(CC(=O)NCC2CCC(C(=O)NC(Cc3ccc4ccccc4c3)C(=O)NCCCCC(NC(=O)NC(CCC(=O)O)C(=O)O)C(=O)O)CC2)CCN(CC(=O)[O-])CC1.[227Th+4] (stereo not shown) [Example 1-B-227Th]", 0.04],
  ["O=C([O-])CN1CCN(CC(=O)[O-])CCN(CC(=O)NCc2ccc(C(=O)N[C@@H](Cc3ccc4ccccc4n3)C(=O)NCCCC[C@H](NC(=O)N[C@@H](CCC(=O)O)C(=O)O)C(=O)O)nc2)CCN(CC(=O)[O-])CC1.[227Th+4] [Example 34-B-227Th]", 0.00],
  ["Cc1cc(C(=O)NCCN(CCCN(CCNC(=O)c2cc(C)n(CC(=O)O)c(=O)c2[O-])CCNC(=O)c2cc(C)n(CC(=O)NCC3CCC(C(=O)NC(Cc4cnc5ccccc5c4)C(=O)NCCCCC(NC(=O)NC(CCC(=O)O)C(=O)O)C(=O)O)CC3)c(=O)c2[O-])CCNC(=O)c2cc(C)n(CC(=O)NCC3CCC(C(=O)NC(Cc4cnc5ccccc5c4)C(=O)NCCCCC(NC(=O)NC(CCC(=O)O)C(=O)O)C(=O)O)CC3)c(=O)c2[O-])c([O-])c(=O)n1CC(=O)O.[227Th+4] (stereo not shown) [Example 22-C dimer-227Th]", 0.00]
]}
